ASSAYED_SYSTEM: Transient receptor potential cation channel subfamily A member 1 (Homo sapiens)
Sequence (O75762 whole entry): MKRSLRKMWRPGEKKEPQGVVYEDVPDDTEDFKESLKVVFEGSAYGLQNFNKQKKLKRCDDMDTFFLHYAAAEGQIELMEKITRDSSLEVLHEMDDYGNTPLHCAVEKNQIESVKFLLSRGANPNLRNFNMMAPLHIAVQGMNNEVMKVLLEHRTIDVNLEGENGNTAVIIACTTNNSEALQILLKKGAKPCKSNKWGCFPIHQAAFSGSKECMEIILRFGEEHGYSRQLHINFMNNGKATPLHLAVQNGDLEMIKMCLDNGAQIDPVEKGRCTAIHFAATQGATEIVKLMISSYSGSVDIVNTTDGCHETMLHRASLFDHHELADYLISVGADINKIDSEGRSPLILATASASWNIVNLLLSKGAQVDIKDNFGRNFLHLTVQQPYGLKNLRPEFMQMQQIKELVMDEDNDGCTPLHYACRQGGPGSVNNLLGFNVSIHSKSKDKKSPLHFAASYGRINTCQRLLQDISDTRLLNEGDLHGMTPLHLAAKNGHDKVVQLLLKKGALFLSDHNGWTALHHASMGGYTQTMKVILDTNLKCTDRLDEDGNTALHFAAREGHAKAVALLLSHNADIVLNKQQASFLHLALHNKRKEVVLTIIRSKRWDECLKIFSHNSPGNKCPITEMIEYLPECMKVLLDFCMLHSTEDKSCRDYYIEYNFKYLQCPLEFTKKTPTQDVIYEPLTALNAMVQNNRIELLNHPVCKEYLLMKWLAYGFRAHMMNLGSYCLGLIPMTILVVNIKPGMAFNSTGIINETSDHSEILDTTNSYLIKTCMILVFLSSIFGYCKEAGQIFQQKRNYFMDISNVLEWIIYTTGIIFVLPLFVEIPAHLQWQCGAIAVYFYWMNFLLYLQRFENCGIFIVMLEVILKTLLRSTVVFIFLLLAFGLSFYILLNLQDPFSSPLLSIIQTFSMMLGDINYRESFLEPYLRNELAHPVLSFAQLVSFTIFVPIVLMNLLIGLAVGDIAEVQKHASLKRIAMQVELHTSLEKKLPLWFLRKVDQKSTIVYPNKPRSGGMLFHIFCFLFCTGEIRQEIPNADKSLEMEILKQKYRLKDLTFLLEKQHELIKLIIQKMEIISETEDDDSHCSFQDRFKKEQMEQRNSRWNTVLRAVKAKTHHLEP
ASSAY_EXPLANATION: Antagonist activity at human TRPA1 expressed in HEK293-TREx cells assessed as intracellular level after 48 of 72 hrs by Fluo-4 NW staining-based fluorescence analysis
Quick rule for you: IC50 under 1 µM gets Yes, anything else gets No.

Q. # TODO verify IC50 < 1 µM strictly for this compound: `Fc1cc(F)c(Oc2ncnc3[nH]ccc23)c(F)c1`
A. No

Q. # TODO verify IC50 < 1 µM strictly for this compound: `Cc1cc2c(Oc3ccc(F)cc3F)ncnc2[nH]1`
A. No

Q. # TODO verify IC50 < 1 µM strictly for this compound: `Fc1ccc(Oc2cccc3[nH]ccc23)c(F)c1`
A. No

Q. # TODO verify IC50 < 1 µM strictly for this compound: `Fc1ccc(Oc2nccc3ccccc23)c(F)c1`
A. No

Q. # TODO verify IC50 < 1 µM strictly for this compound: `Fc1ccc(Oc2nccc3[nH]ccc23)cc1`
A. Yes

Q. # TODO verify IC50 < 1 µM strictly for this compound: `Fc1ccc(Oc2ncnc3[nH]ccc23)c(F)c1`
A. Yes

Q. # TODO verify IC50 < 1 µM strictly for this compound: `Fc1ccc(Oc2nccc3ccoc23)c(F)c1`
A. No

Q. # TODO verify IC50 < 1 µM strictly for this compound: `Fc1ccc(Oc2ncnc3ccccc23)c(F)c1`
A. No

Q. # TODO verify IC50 < 1 µM strictly for this compound: `Fc1ccc(Oc2ncnc3[nH]cc(Cl)c23)c(F)c1`
A. Yes

Q. # TODO verify IC50 < 1 µM strictly for this compound: `c1ccc(Oc2ncnc3[nH]ccc23)cc1`
A. No

Q. # TODO verify IC50 < 1 µM strictly for this compound: `Cn1ccc2c(Oc3ccc(F)cc3F)ncnc21`
A. No

Q. # TODO verify IC50 < 1 µM strictly for this compound: `Clc1ccc(Oc2ncnc3[nH]ccc23)cc1`
A. No

Q. # TODO verify IC50 < 1 µM strictly for this compound: `Fc1ccc(Oc2ncnc3[nH]ccc23)cc1`
A. Yes

Q. # TODO verify IC50 < 1 µM strictly for this compound: `COc1cc2ncnc(Oc3ccc(F)cc3F)c2cc1OC`
A. No

Q. # TODO verify IC50 < 1 µM strictly for this compound: `N#Cc1ccc(Oc2ncnc3[nH]ccc23)cc1`
A. No

Q. # TODO verify IC50 < 1 µM strictly for this compound: `Fc1ccc(Oc2ncnc3[nH]ccc23)cc1F`
A. No

Q. # TODO verify IC50 < 1 µM strictly for this compound: `Cc1ccc(Oc2ncnc3[nH]ccc23)c(C)c1`
A. No

Q. # TODO verify IC50 < 1 µM strictly for this compound: `CCc1c[nH]c2ncnc(Oc3ccc(F)cc3F)c12`
A. No

Q. # TODO verify IC50 < 1 µM strictly for this compound: `Cc1ccccc1Oc1ncnc2[nH]ccc12`
A. No

Q. # TODO verify IC50 < 1 µM strictly for this compound: `Cc1ccc(Oc2ncnc3[nH]ccc23)cc1`
A. No

Q. # TODO verify IC50 < 1 µM strictly for this compound: `Fc1ccc(Oc2nccc3occc23)c(F)c1`
A. No

Q. # TODO verify IC50 < 1 µM strictly for this compound: `Fc1ccccc1Oc1ncnc2[nH]ccc12`
A. No

Origin of values: ChEMBL document CHEMBL3297644
